Taken from PubChem BioAssay AID2052.

// double positive events lookup, one value per entry
assay: murine CD8 T cell vesicle adhesion modulation – mouse 2C CD8+ T cells, flow cytometry, primary screen (AID 2052); settings: 2C CD8+ T cell-vesicle binding, at 7 µM, stronger effect = lower value; measured here: CD8+ vesicle-bound cell fraction;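 on double positive events: binding gate set so that unloaded-vesicle control wells show 10% double positive cells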
The campaign covered roughly 330,000 compounds. About 220 (0.067%) were called active. Shown is part of a subset that was picked to be rich in actives.
Answer with the figure and its unit, nothing else.

// below: answered compounds
{"compound": "COc1ccc(/C=C2\\N=C3CCCN3C2=O)cc1", "double positive events": "16.6%"}
{"compound": "COc1cc(OC)c(-n2cc(-c3ccc(Cl)cc3)[nH]c2=O)cc1Cl", "double positive events": "39.5%"}
{"compound": "COc1cccc(C(=O)NNC(=O)/C=C/c2ccccc2)c1", "double positive events": "61.7%"}

Input line: What value of double positive events has been recorded for this entry: CCCCCC1CCC(c2nnc(SCC(C)=O)o2)CC1 (stereo unspecified)
Output line: 19.4%

Input line: Entry Cc1nc([N+](=O)[O-])c(NCCCO)n1Cc1ccccc1 please
Output line: 19.6%

Input line: Now give it for Cc1cc(C)cc(NC(=O)NC2CCN(CC(=O)Nc3cccc(Cl)c3C)CC2)c1 too.
Output line: 43.5%

---

assay: murine CD8 T cell vesicle adhesion modulation – mouse 2C CD8+ T cells, flow cytometry, primary screen (AID 2052); settings: 2C CD8+ T cell-vesicle binding, at 7 µM, stronger effect = lower value; measured here: CD8+ vesicle-bound cell fraction;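 on double positive events: binding gate set so that unloaded-vesicle control wells show 10% double positive cells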
About 220 (0.067%) of roughly 330,000 compounds were called active. What follows is part of a selection rich in actives, with near analogues and random picks from the rest.
Labelling: double positive events reported below 30% becomes yes; at or above becomes no.

Input line: Is the reported double positive events for CC(C)c1ccc(N(C(=O)c2ccco2)C(C(=O)NC2CCCC2)c2cccnc2)cc1 (configuration not stated) strictly below 30%?
Output line: yes

Input line: Cc1sc2ncnc(N3CCC(C(=O)NNC(=O)c4ccc(F)cc4)CC3)c2c1C , same question.
Output line: no

Input line: Query COc1ccc(N2CC(C)Cn3c2nc2c3c(=O)n(Cc3ccccc3F)c(=O)n2C)c(OC)c1 (configuration not stated) next
Output line: yes

Input line: And Cc1cc(C(=O)N2CCN(c3ccccn3)CC2)c(C)o1 ?
Output line: yes

Input line: Ok, now CCn1cc(C(=O)N2CC=C(c3ccccc3)CC2)c(=O)c2ccc(C)nc21
Output line: yes

Input line: Cool, now CCOc1ccc(NC(=O)CC2C(=O)N(c3ccccc3)C(=O)N2CCOC)cc1 (configuration not stated)
Output line: yes

Input line: And what about the compound CN(CC(=O)NCCc1ccc(S(N)(=O)=O)cc1)CC(=O)Nc1ccc(Cl)cc1 ?
Output line: no

---

test: murine CD8 T cell vesicle adhesion modulation – mouse 2C CD8+ T cells, flow cytometry, primary screen (AID 2052); conditions: 2C CD8+ T cell-vesicle binding, at 7 µM
Out of some 330,000 compounds screened, about 220 (0.067%) were called active.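 The calls were made as follows: active = response, share of CD8 T cells binding vesicles, and their 90th percentile fluorescence all below set limits (cut at about 80% in these data, passing the limit was not always enough); inactive = the rest, inconclusive results apart.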 What follows is part of a selection rich in actives, with near analogues and random picks from the rest.
// classify into class 1 = active, class 0 = inactive

{"compound": "O=C(c1ccco1)N1CCN(CCOc2ccccc2)CC1", "assigned_category": "class 0"}
{"compound": "Cc1nc([N+](=O)[O-])c(NCCCO)n1Cc1ccccc1", "assigned_category": "class 0"}
{"compound": "CCc1nnc(NC(=O)CSc2nc(SC)ns2)s1", "assigned_category": "class 0"}
{"compound": "COc1ccc(CNc2nnnn2C)cc1", "assigned_category": "class 1"}
{"compound": "OCC(CO)(CO)NCc1ccc(-c2ccccc2)cc1", "assigned_category": "class 0"}

Input line: Test call for this compound, please: CCOC(=O)C(=CNNc1ccsc1C(=O)OC)C(=O)OCC
Output line: class 0

Input line: What do you get for COc1ccc(C2c3[nH]c4ccccc4c3C[C@H]3C(=O)N(CC(C)C)CC(=O)N23)c(OC)c1 (some centres undefined) ?
Output line: class 0

Input line: Now this one: CN(CCc1cnn(C)c1)Cc1cn(C)nc1-c1ccccc1F
Output line: class 0

Input line: // query: Cn1ccc(=NC=C(C#N)C#N)c2ccccc21
Output line: class 0

Input line: How about Cc1ccc(S(=O)(=O)NCCC(=O)NC2CCN(Cc3ccccc3)CC2)cc1 ?
Output line: class 0

Input line: Lookup O=C(NN1C(=O)C2C3C=CC(C3)C2C1=O)c1ccco1 (centres undefined)
Output line: class 0

Input line: Now consider C=CC[C@@H](CC(=O)N[C@@H](CO)Cc1ccccc1)C(=O)NCCOC(=O)[C@@H](CC=C)CC(=O)OC(C)(C)C .
Output line: class 0

Input line: Moving on to O=C(c1ccc2c(c1)OCO2)N1CCN(C(=O)c2ccco2)CC1
Output line: class 0
